Measured CC50 of individual entries
tested on: Vero; experiment: cells; format: functional; settings: Chlorocebus sabaeus
The source made the active and inactive calls. The rule behind the calls is not given here.

line-notation: CCCN1C(=O)S/C(=C/c2ccc(N3CCOCC3)o2)C1=O
target: Vero
assay-metric: CC50
recorded-result: > 25 µM (active)
--
line-notation: CCN1CCN(Cc2ccc(NC(=O)c3cc(NC(=O)N4CCNC4=O)cc(OC)c3)cc2C(F)(F)F)CC1
target: Vero
assay-metric: CC50
recorded-result: > 25 µM (active)
--
line-notation: Cc1oc(-c2ccccc2Cl)nc1CSCC(=O)N1CCCC1
target: Vero
assay-metric: CC50
recorded-result: > 25 µM (active)
--
line-notation: Cc1[nH]c2ccccc2c1CN1CCC(Cc2ccccc2)CC1
target: Vero
assay-metric: CC50
recorded-result: > 25 µM (active)
--
line-notation: Oc1c(CN2CCN(c3ccccc3)CC2)cc(Br)c2cccnc12
target: Vero
assay-metric: CC50
recorded-result: 3.51 µM (active)
--
line-notation: Cc1ccc(S(=O)(=O)Nc2ccc(NC(=O)c3c(F)c(F)c(F)c(F)c3F)cc2)cc1
target: Vero
assay-metric: CC50
recorded-result: 23 µM (active)

Q: Quick one: CC50 for `NCCCNc1nc(N)c([N+](=O)[O-])c(NC2CCCCC2)n1` ?
Ans: 11.6 µM (active)
